Each entry below carries its measured Kd, system: Septin-9 (Homo sapiens). Also: in the data inactive means no Kd found up to 30 µM.
Sequence (Q9UHD8 whole entry): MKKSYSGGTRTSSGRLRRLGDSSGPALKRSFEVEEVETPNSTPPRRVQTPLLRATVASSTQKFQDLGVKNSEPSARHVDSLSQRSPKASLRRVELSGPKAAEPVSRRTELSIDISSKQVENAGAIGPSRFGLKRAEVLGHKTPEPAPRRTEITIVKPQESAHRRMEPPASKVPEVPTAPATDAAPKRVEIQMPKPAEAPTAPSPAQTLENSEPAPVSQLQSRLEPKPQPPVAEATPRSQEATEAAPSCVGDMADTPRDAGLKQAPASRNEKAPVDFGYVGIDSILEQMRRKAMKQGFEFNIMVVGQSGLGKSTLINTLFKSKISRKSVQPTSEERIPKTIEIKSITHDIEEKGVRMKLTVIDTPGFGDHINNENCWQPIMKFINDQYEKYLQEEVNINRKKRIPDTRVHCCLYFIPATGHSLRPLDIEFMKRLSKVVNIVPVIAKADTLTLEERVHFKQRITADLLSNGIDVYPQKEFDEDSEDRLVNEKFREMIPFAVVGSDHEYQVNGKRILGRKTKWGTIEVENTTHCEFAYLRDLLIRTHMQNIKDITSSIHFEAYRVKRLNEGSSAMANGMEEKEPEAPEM
Active and inactive are the calls of the source.

Illustrative cases are given below, each with its answer.
molecule	Kd
CO[C@H]1C[C@@H]2CC[C@@H](C)[C@@](O)(O2)C(=O)C(=O)N2CCCC[C@H]2C(=O)O[C@H]([C@H](C)C[C@@H]2CC[C@@H](O)[C@H](OC)C2)CC(=O)[C@H](C)/C=C(\C)[C@@H](O)[C@@H](OC)C(=O)[C@H](C)C[C@H](C)/C=C/C=C/C=C/1C [SIROLIMUS]	> 30 µM (inactive)
COc1cc([C@@H]2c3cc4c(cc3[C@H](O)[C@H]3COC(=O)[C@@H]23)OCO4)cc(OC)c1OC [AXL-1717]	> 30 µM (inactive)
COc1ccc(S(=O)(=O)N(C(C)=O)c2ccccc2/C=C/c2cc[n+]([O-])cc2)cc1 [HMN-214]	> 30 µM (inactive)
Cn1cc(-c2cnn3c(N)c(Br)c([C@@H]4CCCNC4)nc23)cn1 [SCH-900776]	> 30 µM (inactive)
COc1c(OCCCN2CCOCC2)ccc2c1N=C(NC(=O)c1cnc(N)nc1)N1CCN=C21 [COPANLISIB]	> 30 µM (inactive)

**Query** Requested read-out: Kd. Entry: C=CC(=O)Nc1cc2c(Nc3ccc(F)c(Cl)c3)ncnc2cc1C#CC(C)(C)N1CCN(C)CC1 [AV-412 FREE BASE]
**Result** > 30 µM (inactive)

**Query** Now consider CCOc1cc2ncc(C#N)c(Nc3ccc(F)c(Cl)c3)c2cc1NC(=O)/C=C/CN(C)C [PELITINIB] .
**Result** > 30 µM (inactive)

**Query** Here is the next molecule: Cc1nc(NC(=O)N2CCC[C@H]2C(N)=O)sc1-c1ccnc(C(C)(C)C(F)(F)F)c1 [ALPELISIB]
**Result** > 30 µM (inactive)
